Origin of measurements: patent US9527839B2

target: recombinant human AMPK complex 7 (containing α2β1γ1) (Homo sapiens (Human), UniProt P54646+Q9Y478); assay: In vitro AMPK activation assay (AMPKSAMSF), complex 7; format: biochemical; settings: recombinant human AMPK complex 7 (α2β1γ1)
Sequence (P54646 whole entry): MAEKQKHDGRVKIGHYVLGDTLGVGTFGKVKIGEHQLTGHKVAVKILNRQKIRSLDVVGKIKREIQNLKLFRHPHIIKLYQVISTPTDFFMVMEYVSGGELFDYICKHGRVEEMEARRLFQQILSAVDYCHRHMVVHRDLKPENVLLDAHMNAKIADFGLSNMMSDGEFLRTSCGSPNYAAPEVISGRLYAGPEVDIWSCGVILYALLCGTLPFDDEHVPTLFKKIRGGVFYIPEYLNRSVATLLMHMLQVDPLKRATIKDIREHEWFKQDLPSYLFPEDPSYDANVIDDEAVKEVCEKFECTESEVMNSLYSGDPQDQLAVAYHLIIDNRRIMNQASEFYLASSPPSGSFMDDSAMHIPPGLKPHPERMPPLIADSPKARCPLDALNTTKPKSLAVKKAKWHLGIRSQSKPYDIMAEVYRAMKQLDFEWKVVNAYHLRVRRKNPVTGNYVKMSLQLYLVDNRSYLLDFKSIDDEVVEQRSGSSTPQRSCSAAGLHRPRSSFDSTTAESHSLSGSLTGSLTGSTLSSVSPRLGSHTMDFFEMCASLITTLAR
Sequence (Q9Y478 whole entry): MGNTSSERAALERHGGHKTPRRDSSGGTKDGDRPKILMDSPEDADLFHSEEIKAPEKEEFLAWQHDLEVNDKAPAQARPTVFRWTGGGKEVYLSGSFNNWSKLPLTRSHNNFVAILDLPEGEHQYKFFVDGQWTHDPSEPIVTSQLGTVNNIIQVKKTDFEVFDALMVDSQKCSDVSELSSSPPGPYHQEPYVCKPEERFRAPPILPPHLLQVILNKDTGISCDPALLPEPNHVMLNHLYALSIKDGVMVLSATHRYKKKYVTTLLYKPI
Sequence (P54619 whole entry partner): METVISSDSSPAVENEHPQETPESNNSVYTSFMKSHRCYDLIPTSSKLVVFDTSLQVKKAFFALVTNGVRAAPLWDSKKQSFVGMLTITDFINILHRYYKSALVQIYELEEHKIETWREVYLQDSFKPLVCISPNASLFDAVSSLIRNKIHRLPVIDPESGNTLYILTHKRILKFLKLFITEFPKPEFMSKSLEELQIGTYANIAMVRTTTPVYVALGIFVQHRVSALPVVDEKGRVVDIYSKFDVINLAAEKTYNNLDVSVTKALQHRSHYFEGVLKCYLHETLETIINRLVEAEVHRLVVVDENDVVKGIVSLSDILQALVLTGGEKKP
parameter_measured: EC50
Note to self: number, then unit, no commentary.

Please supply EC50 for each of the following items, keeping them in order.
1. CC(CO)(CO)c1ccc(-c2ccc(-c3cc4nc(O[C@H]5CO[C@H](CO)[C@@H](O)C5)[nH]c4cc3Cl)cc2)cc1
2. OC[C@H]1OC[C@H](Oc2nc3c(F)c(-c4ccc(-c5ccc(-n6cncn6)cc5)cc4)c(F)cc3[nH]2)C[C@@H]1O
3. OC[C@H]1OC[C@H](Oc2nc3c(F)c(-c4ccc(-c5ccc(-c6nnc(O)o6)cc5)cc4)c(F)cc3[nH]2)C[C@@H]1O
4. OC[C@H]1OC[C@H](Oc2nc3c(F)c(-c4ccc(-c5ccc(C6CNCCO6)cc5)cc4)c(F)cc3[nH]2)C[C@@H]1O (stereo partly drawn)

Reply text:
1: 6 nM; 2: 2 nM; 3: 7 nM; 4: 3 nM

Please supply EC50 for each of the following items, keeping them in order.
1. N=c1nc(N)[nH]n1-c1ccc(-c2ccc(-c3cc4nc(O[C@H]5CO[C@H](CO)[C@@H](O)C5)[nH]c4cc3Cl)cc2)cc1
2. CC(C)(O)Cc1cnn(-c2ccc(-c3ccc(-c4cc5nc(O[C@H]6CO[C@H](CO)[C@@H](O)C6)[nH]c5cc4Cl)cc3)cc2)c1

Reply text:
1. 7 nM
2. 18 nM

* * *

Exercise: for every item that follows, state its recorded EC50.
target: recombinant human AMPK complex 7 (containing α2β1γ1) (Homo sapiens (Human), UniProt P54646+Q9Y478); test: In vitro AMPK activation assay (AMPKSAMSF), complex 7; format: biochemical; details: recombinant human AMPK complex 7 (α2β1γ1)
One number for each entry, in nM.

[[record]]
compound = "O=C1NCCC1c1ccc(-c2ccc(-c3c(F)cc4[nH]c(O[C@H]5CO[C@H](CO)[C@@H](O)C5)nc4c3F)cc2)cc1 (stereo partly drawn)"
units_of_measure = "nM"
result = 4

[[record]]
compound = "OC[C@H]1OC[C@H](Oc2nc3c(F)c(-c4ccc(-c5ccc(-c6nccc(O)n6)cc5)cc4)c(F)cc3[nH]2)C[C@@H]1O"
units_of_measure = "nM"
result = 3


// below: EC50 requested for another compound
Inquiry: Bench note: what EC50 did `OC[C@H]1OC[C@H](Oc2nc3cc(-c4ccc(-c5ccc(-c6nccc(O)n6)cc5)cc4)c(Cl)cc3[nH]2)C[C@@H]1O` show?
Reply text: 7

* * *

Exercise: for every item that follows, state its recorded EC50.
Molecular target: recombinant human AMPK complex 7 (containing α2β1γ1) (Homo sapiens (Human), UniProt P54646+Q9Y478)
Test: In vitro AMPK activation assay (AMPKSAMSF), complex 7
Type: biochemical
Conditions: recombinant human AMPK complex 7 (α2β1γ1)
Description: The recombinant human AMPK complex 1 (containing α1β1γ1) or AMPK complex 7 (containing α2β1γ1) was obtained from baculovirus expression system. […] The in vitro AMPK activation assay is performed in a volume of 30 μl in a 384-well plate. […] Phosphorylated 5-FAM SAMS product is assessed using a Caliper EZ Reader LabChip microfluidics reader. Product conversion is determined by calculating the peak heights of the substrate and product and reporting the product/(product+substrate) peak ratio. […]
One number for each entry, in nM.

Here's what some known entries look like.
[[record]]
compound = "OC[C@H]1OC[C@H](Oc2nc3c(F)c(-c4ccc(-c5ccc(-c6ncco6)cc5)cc4)c(F)cc3[nH]2)C[C@@H]1O"
result = 17

[[record]]
compound = "O=C(O)CCCc1ccc(-c2ccc(-c3c(F)cc4[nH]c(O[C@H]5CO[C@H](CO)[C@@H](O)C5)nc4c3F)cc2)cc1"
result = 11

[[record]]
compound = "OC[C@H]1OC[C@H](Oc2nc3c(F)c(-c4ccc(-c5ccc(-c6nccs6)cc5)cc4)c(F)cc3[nH]2)C[C@@H]1O"
result = 13


Please supply EC50 for each of the following items, keeping them in order.
1. O=C1NCCC1c1ccc(-c2ccc(-c3cc4nc(O[C@H]5CO[C@H](CO)[C@@H](O)C5)[nH]c4cc3Cl)cc2)cc1 (stereo partly shown)
2. CNC(=O)c1ccc(-c2ccc(-c3c(F)cc4[nH]c(O[C@H]5CO[C@H](CO)[C@@H](O)C5)nc4c3F)cc2)cc1
3. CC(C)(O)Cc1cnn(-c2ccc(-c3ccc(-c4c(F)cc5[nH]c(O[C@H]6CO[C@H](CO)[C@@H](O)C6)nc5c4F)cc3)cc2)c1
4. N=c1nc(N)[nH]n1-c1ccc(-c2ccc(-c3c(F)cc4[nH]c(O[C@H]5CO[C@H](CO)[C@@H](O)C5)nc4c3F)cc2)cc1
5. OC[C@H]1OC[C@H](Oc2nc3c(F)c(-c4ccc(-c5ccc(-c6nnn[nH]6)cc5)cc4)c(F)cc3[nH]2)C[C@@H]1O
6. O=S(=O)(c1ccc(-c2ccc(-c3cc4nc(O[C@H]5CO[C@H](CO)[C@@H](O)C5)[nH]c4cc3Cl)cc2)cc1)C1CCNCC1

Reply text:
15
2
7
5
9
14
